Measured values drawn from ChEMBL document CHEMBL1255556 for this set.

Entries annotated with measured pKi
test-system: 5-hydroxytryptamine receptor 1A (Homo sapiens, UniProt P08908)
experiment: Binding affinity to human 5HT1A receptor expressed in HeLa cells by scintillation proximity assay
Type: cell-based
In textbook form, pKi equals minus log to base ten of the concentration in mol/L.

Give reported pKi value for "O=C1NCc2ccc(OCCCCN3CCN(c4cccc5c4COC5)CC3)cc21"
8.16

Give reported pKi value for "Cc1cc2c(cc1OCCCCN1CCN(c3cccc4ccccc34)CC1)C(=O)NC2"
9.10

Give reported pKi value for "Cc1c(OCCCCN2CCN(c3cccc4cc(F)ccc34)CC2)ccc2c1C(=O)NC2"
7.76

// below: pKi requested for another molecule
Give reported pKi value for "O=C1NCc2cc(F)c(OCCCCN3CCN(c4cccc5ccc(F)cc45)CC3)cc21"
8.75

###

test-system: Voltage-gated inwardly rectifying potassium channel KCNH2 (Homo sapiens, UniProt Q12809)
Sequence (Q12809 whole entry): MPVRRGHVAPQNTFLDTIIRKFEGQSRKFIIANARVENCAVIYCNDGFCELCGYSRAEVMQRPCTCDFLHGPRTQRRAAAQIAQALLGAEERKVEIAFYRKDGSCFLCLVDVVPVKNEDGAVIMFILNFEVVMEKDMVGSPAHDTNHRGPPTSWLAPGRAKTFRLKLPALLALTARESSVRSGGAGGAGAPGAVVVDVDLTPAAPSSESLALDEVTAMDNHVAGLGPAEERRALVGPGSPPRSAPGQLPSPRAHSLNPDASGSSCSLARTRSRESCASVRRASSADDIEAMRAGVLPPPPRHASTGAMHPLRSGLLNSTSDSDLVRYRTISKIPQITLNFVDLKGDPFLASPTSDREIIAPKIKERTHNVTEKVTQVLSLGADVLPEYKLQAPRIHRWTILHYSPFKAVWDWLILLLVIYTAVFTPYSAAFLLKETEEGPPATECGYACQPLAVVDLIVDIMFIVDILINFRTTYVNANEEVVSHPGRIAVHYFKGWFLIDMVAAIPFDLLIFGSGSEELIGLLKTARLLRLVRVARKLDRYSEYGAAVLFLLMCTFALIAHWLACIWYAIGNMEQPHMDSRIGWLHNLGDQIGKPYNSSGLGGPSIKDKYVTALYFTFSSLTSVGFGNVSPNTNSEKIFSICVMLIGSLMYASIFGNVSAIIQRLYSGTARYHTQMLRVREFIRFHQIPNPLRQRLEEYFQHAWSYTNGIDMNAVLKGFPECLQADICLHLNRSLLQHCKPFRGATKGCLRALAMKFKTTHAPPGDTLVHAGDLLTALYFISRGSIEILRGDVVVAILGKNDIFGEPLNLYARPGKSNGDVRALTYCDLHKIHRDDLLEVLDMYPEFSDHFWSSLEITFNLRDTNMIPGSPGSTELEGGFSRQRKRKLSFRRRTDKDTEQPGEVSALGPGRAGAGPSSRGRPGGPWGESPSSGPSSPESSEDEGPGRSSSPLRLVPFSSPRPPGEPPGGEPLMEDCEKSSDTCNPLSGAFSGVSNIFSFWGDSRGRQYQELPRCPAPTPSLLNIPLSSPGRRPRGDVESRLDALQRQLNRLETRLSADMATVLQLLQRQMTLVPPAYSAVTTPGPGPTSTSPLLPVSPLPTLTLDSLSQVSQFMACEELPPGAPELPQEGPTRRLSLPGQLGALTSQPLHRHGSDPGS
result-type: Ki (nM)
Quick note: give the figure in nM, leave out the unit.

Give reported Ki value for "O=C1NCc2ccc(OCCCN3CCN(c4cccc5cc(F)ccc45)CC3)cc21"
439

Continuing:
Give reported Ki value for "O=C1NCc2ccc(OCCCN3CCN(c4cccc5cccc(F)c45)CC3)cc21"
1290

Give reported Ki value for "O=C1NCc2ccc(OCCCCN3CCN(c4cccc5ccccc45)CC3)cc21"
1850

Give reported Ki value for "O=C1NCc2ccc(OCCCCN3CCN(c4cccc5cc(F)ccc45)CC3)cc21"
969

###

Entries annotated with measured CLint scaled
experiment: Apparent intrinsic clearance in human liver microsomes
Assay type: ADME, Microsome
Quick note: give the figure in mL/min/kg, leave out the unit.

Give reported CLint scaled value for "O=C1CCc2ccc(OCCCCN3CCN(c4cccc(Cl)c4Cl)CC3)cc2N1"
31.7

// below: CLint scaled requested for another molecule
Give reported CLint scaled value for "O=C1NCc2ccc(OCCCCN3CCN(c4cccc5ccccc45)CC3)cc21"
23.7

###

test-system: 5-hydroxytryptamine receptor 1A (Homo sapiens, UniProt P08908)
Sequence (P08908 whole entry): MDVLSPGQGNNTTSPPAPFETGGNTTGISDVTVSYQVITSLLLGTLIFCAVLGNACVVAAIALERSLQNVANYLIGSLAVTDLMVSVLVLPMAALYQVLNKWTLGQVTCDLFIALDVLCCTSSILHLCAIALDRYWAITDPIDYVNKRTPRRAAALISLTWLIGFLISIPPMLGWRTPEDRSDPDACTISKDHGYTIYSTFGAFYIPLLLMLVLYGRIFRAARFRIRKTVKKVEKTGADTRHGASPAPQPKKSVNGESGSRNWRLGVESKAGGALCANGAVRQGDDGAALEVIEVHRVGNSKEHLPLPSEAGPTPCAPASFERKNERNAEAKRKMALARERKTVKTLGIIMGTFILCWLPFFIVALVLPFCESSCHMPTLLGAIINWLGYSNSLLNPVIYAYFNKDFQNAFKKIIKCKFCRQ
experiment: biochemical
Description: Displacement of [3H]-8-OH-DPAT from human 5HT1A receptor expressed in HeLa cells
Entries annotated with measured Ki
Quick note: give the figure in nM, leave out the unit.

// below: answered compounds
Give reported Ki value for "Fc1ccc2cccc(N3CCN(CCCOc4ccc5c(c4)CNC5)CC3)c2c1"
0.102

Give reported Ki value for "O=C1NCc2ccc(OCCCCN3CCN(c4cccc5cccc(F)c45)CC3)cc21"
0.0504

Give reported Ki value for "c1ccc2c(N3CCN(CCCCOc4ccc5c(c4)CNC5)CC3)cccc2c1"
0.204

Give reported Ki value for "O=C1NCc2ccc(OCCCCN3CCN(c4cccc5ccccc45)CC3)cc21"
0.151

Give reported Ki value for "O=C1NCc2ccc(OCCCN3CCN(c4cccc5c4COCC5)CC3)cc21"
0.108

Continuing:
Give reported Ki value for "Fc1ccc2cccc(N3CCN(CCCCOc4ccc5c(c4)CNC5)CC3)c2c1"
0.243

Give reported Ki value for "O=C1NCc2ccc(OCCCCN3CCN(c4cccc5c4COCC5)CC3)cc21"
0.279
